method: Plasma concentration in diet-induced obese mouse at 0.1 mg/kg, po
Format: ADME, organism-based
protocol_conditions: in vivo
experimental_readout: concentration

[[record]]
chemical_smiles = "COc1ccc(F)c([C@H]2CC[C@H](COc3cccc([C@H](C4CC4)[C@@](C)(F)C(=O)O)c3)CC2)c1"
experimental_readout = "concentration"
meas_value = "22 nM"


###

method: Plasma concentration in diet-induced obese C57BL/6J mouse at 1 mg/kg, po once daily for 14 days measured 24 hrs post last dose
Assay type: ADME, organism-based
experimental_readout: concentration at 24 h (nM)

[[record]]
chemical_smiles = "COc1ccc(F)c([C@H]2CC[C@H](COc3cccc([C@H](C4CC4)[C@@](C)(F)C(=O)O)c3)CC2)c1"
experimental_readout = "concentration at 24 h"
meas_value = 340


###

method: Oral bioavailability in Sprague-Dawley rat at 10 mg/kg by LC-MS/MS analysis
Type: ADME, organism-based
protocol_conditions: in vivo
experimental_readout: bioavailability

[[record]]
chemical_smiles = "COc1ccc(F)c([C@H]2CC[C@H](COc3cccc([C@H](C4CC4)[C@@](C)(F)C(=O)O)c3)CC2)c1"
meas_value = "92.1%"

[[record]]
chemical_smiles = "COc1ccc(F)c([C@H]2CC[C@H](COc3cccc([C@H](C4CC4)[C@H](C)C(=O)O)c3)CC2)c1"
meas_value = "45.5%"

[[record]]
chemical_smiles = "COc1ccc(F)c([C@H]2CC[C@H](COc3cccc([C@@H](CC(=O)O)C4CC4)c3)CC2)c1"
meas_value = "91.4%"

[[record]]
chemical_smiles = "COc1ccc(F)c([C@H]2CC[C@H](COc3cccc([C@H](C4CC4)[C@@H](F)C(=O)O)c3)CC2)c1"
meas_value = "73.8%"

